Assay: Cytotoxicity against human IMR32 cells after 6 hrs by MTT assay
Format: functional, cell-based
Conditions: IMR-32, 6 h
Assignment: determine reported IC50 for the given compounds.
Number in mg/L, nothing else.

Query :: Can you look up the measured IC50 of `c1ccc2c(CNc3ccc(Oc4ccc(NCc5c6ccccc6cc6ccccc56)cc4)cc3)c3ccccc3cc2c1` for me?
Result :: 65

Query :: Can you look up the measured IC50 of `C(=N\c1ccc(Oc2ccc(/N=C/c3cccc4ccccc34)cc2)cc1)/c1cccc2ccccc12` for me?
Result :: 33.5

Query :: Can you look up the measured IC50 of `Nc1ccc(Oc2ccc(N)cc2)cc1` for me?
Result :: 54.5

Query :: Can you look up the measured IC50 of `c1ccc(CNc2ccc(Oc3ccc(NCc4ccccc4)cc3)cc2)cc1` for me?
Result :: 31.9

Query :: Can you look up the measured IC50 of `C(=N\c1ccc(Oc2ccc(/N=C/c3cc4ccccc4c4ccccc34)cc2)cc1)/c1cc2ccccc2c2ccccc12` for me?
Result :: 63.1

Query :: Can you look up the measured IC50 of `C(=N\c1ccc(Oc2ccc(/N=C/c3ccccc3)cc2)cc1)/c1ccccc1` for me?
Result :: 42.9

Query :: Can you look up the measured IC50 of `c1ccc2c(CNc3ccc(Oc4ccc(NCc5cccc6ccccc56)cc4)cc3)cccc2c1` for me?
Result :: 89.1

Query :: Can you look up the measured IC50 of `C(=N\c1ccc(Oc2ccc(/N=C/c3c4ccccc4cc4ccccc34)cc2)cc1)/c1c2ccccc2cc2ccccc12` for me?
Result :: 50.3

Taken from ChEMBL document CHEMBL3120155.
